# Lookup of reported Activity keyed by entry
test system: Rattus norvegicus; experiment: Effect on in vivo accumulation of DOPA was measured in rat limbic system at 59(Micromol/kg) dose; type: functional
endpoint: Activity (ng/g)

| compound | qual | observed |
| --- | --- | --- |
| CCCN[C@H]1Cc2c(O)cccc2C[C@@H]1C (stereo in doubt; (+)-9) | = | 426 |
| CCCN[C@H]1Cc2c(O)cccc2C[C@@H]1C (racemic) | = | 400 |
| CCCN[C@H]1Cc2c(O)cccc2C[C@@H]1C (stereo in doubt; (-)-9) | < | 340 |
| CCCN[C@H]1Cc2c(O)cccc2C[C@H]1C (racemic) | < | 283 |
| CCCN[C@H]1Cc2c(O)cccc2C[C@H]1C (stereo in doubt; (+)-13) | < | 271 |
| CCCN[C@H]1Cc2c(O)cccc2C[C@H]1C (stereo in doubt; (-)-13) | = | 365 |
